# TEST PROTOCOL: Plasma concentration in Sprague-Dawley rat at 1 mg/kg, iv after 2 hrs
# Format: ADME, organism-based
Recorded concentration at 2 h, one value per entry.
Express the result in ng/mL but write the number alone.

Field concentration at 2 h (entry `COc1ccc(-c2nn(Cc3nc4cccc(F)c4c(=O)n3-c3c(C)cccc3C)c3ncnc(N)c23)cc1OC` ) reads 13.1

compound `Cc1cccc(C)c1-n1c(Cn2nc(-c3ccc4[nH]ccc4c3)c3c(N)ncnc32)nc2cccc(F)c2c1=O` , concentration at 2 h observed: 13.1

###

# TEST PROTOCOL: Terminal half-life in Sprague-Dawley rat at 1 mg/kg, iv
# Format: ADME, organism-based
# CONDITION NOTES: in vivo, read-out: beta t1/2 (converted)
MEASURED METRIC: half-life (min)
Value expressed in min; do not type the unit.

In [3]: df
Out[3]:
                                smiles_data  measured_metric  unit_string  observed
0  COc1ccc(-c2nn(Cc3nc4cccc(F)c4c(=O)n3-c3c(C)cccc3C)c3ncnc(N)c23)cc1OC        half-life          min      37.2

Documented half-life of `Cc1cccc(C)c1-n1c(Cn2nc(-c3ccc4[nH]ccc4c3)c3c(N)ncnc32)nc2cccc(F)c2c1=O` : 50.4

###

# TEST PROTOCOL: Plasma concentration in Sprague-Dawley rat at 1 mg/kg, iv after 4 hrs
# Format: ADME, organism-based
MEASURED METRIC: concentration at 4 h (ng/mL)
Answer format: numeric, ng/mL implied, no suffix.

>>> df
                                smiles_data  unit_string  observed
0  Cc1cccc(C)c1-n1c(Cn2nc(-c3ccc4[nH]ccc4c3)c3c(N)ncnc32)nc2cccc(F)c2c1=O        ng/mL      2.58

Briefly, concentration at 4 h measured for `COc1ccc(-c2nn(Cc3nc4cccc(F)c4c(=O)n3-c3c(C)cccc3C)c3ncnc(N)c23)cc1OC` : 2.58

###

# reported MRT inf; entries follow
# TEST PROTOCOL: MRT (infinity) in Sprague-Dawley rat at 1 mg/kg, iv
# Format: ADME, organism-based
# CONDITION NOTES: in vivo
# output: bare number, implied unit min

>>> print(df.to_string())
                                smiles_data  measured_metric  unit_string  observed
0  Cc1cccc(C)c1-n1c(Cn2nc(-c3ccc4[nH]ccc4c3)c3c(N)ncnc32)nc2cccc(F)c2c1=O          MRT inf          min      30.6

// field: MRT inf; key: `COc1ccc(-c2nn(Cc3nc4cccc(F)c4c(=O)n3-c3c(C)cccc3C)c3ncnc(N)c23)cc1OC` ; value = 30.6

###

# TEST PROTOCOL: Plasma concentration in Sprague-Dawley rat at 10 mg/kg, po after 8 hrs
# Type: ADME, organism-based
MEASURED METRIC: concentration at 8 h (ng/mL)
Reply with just the number (in ng/mL).

Note to self: concentration at 8 h recorded for `Cc1cccc(C)c1-n1c(Cn2nc(-c3ccc4[nH]ccc4c3)c3c(N)ncnc32)nc2cccc(F)c2c1=O` was 6.5

Just so you know, measured concentration at 8 h for `COc1ccc(-c2nn(Cc3nc4cccc(F)c4c(=O)n3-c3c(C)cccc3C)c3ncnc(N)c23)cc1OC` came out at 6.5

###

# TGT: Phosphatidylinositol 4,5-bisphosphate 3-kinase catalytic subunit delta isoform (Homo sapiens)
# Sequence (O00329 whole entry, canonical isoform): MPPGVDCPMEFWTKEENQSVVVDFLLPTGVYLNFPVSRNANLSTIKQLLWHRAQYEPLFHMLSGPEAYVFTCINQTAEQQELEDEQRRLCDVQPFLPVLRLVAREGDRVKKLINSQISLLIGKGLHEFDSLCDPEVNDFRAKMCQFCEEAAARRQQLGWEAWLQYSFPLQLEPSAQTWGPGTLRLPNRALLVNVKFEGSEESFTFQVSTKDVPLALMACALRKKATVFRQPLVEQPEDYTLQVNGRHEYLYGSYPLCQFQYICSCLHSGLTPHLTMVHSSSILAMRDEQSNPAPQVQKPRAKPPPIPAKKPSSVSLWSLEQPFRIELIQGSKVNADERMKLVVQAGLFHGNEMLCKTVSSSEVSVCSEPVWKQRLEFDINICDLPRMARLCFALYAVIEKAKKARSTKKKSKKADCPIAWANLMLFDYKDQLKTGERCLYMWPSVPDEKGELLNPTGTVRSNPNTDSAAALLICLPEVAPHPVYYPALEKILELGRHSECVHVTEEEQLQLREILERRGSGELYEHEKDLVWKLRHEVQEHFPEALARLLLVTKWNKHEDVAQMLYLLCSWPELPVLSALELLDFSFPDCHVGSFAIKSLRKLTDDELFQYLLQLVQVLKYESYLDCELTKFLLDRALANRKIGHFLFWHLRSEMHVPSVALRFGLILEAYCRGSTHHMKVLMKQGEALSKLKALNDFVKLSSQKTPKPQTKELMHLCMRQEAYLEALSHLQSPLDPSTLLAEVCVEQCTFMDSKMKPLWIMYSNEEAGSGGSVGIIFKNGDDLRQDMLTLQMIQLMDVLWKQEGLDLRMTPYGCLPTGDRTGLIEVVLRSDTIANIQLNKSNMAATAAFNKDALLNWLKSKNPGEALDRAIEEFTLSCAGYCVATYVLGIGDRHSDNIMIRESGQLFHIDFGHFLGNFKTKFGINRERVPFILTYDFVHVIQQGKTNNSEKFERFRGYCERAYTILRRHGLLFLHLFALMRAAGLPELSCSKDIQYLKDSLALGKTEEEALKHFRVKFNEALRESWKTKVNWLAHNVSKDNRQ
# TEST PROTOCOL: Inhibition of PI3Kdelta (unknown origin) using Biotin-S11S12 as substrate after 120 mins in presence of ATP by ADPGlo luminescence assay
pIC50: −log10 of the molar value.
Classify by measured pIC50: Condition met if it is equal to or exceeds 7, Condition not met if it is smaller.

Answered cases to consult:
>>> print(df.to_string())
                                smiles_data     assigned_label
0  Cc1cccc(C)c1-n1c(Cn2nc(-c3ccc4cc(O)ccc4c3)c3c(N)ncnc32)nc2cccc(F)c2c1=O  Condition not met
1  COc1ccc(-c2nn(Cc3nc4cccc(F)c4c(=O)n3-c3c(C)cccc3C)c3ncnc(N)c23)cn1      Condition met
2  COc1ccc(-c2nn(Cc3nc4cccc(F)c4c(=O)n3-c3ccccc3C)c3ncnc(N)c23)cn1      Condition met
3  Cc1ccccc1-n1c(Cn2nc(-c3ccc4[nH]ccc4c3)c3c(N)ncnc32)nc2cccc(F)c2c1=O      Condition met
4  COc1ccc(-c2nn(Cc3nc4cccc(F)c4c(=O)n3-c3c(C)cccc3C)c3ncnc(N)c23)cc1OC      Condition met

Enquiry: pIC50 >= 7 for `COc1ccc(-c2nn(Cc3nc4cccc(F)c4c(=O)n3-c3ccccc3C)c3ncnc(N)c23)cc1OC` ?
Return: Condition met

###

# TEST PROTOCOL: Plasma concentration in Sprague-Dawley rat at 10 mg/kg, po after 4 hrs
# Format: ADME, organism-based
Recorded measurements of concentration at 4 h, one per entry
The reply should be a number in ng/mL, with the unit left off.

For `COc1ccc(-c2nn(Cc3nc4cccc(F)c4c(=O)n3-c3c(C)cccc3C)c3ncnc(N)c23)cc1OC` the molecule record lists concentration at 4 h as 9.86

Form field concentration at 4 h, entry `Cc1cccc(C)c1-n1c(Cn2nc(-c3ccc4[nH]ccc4c3)c3c(N)ncnc32)nc2cccc(F)c2c1=O` : 9.86

###

# TGT: Phosphatidylinositol 4,5-bisphosphate 3-kinase catalytic subunit gamma isoform (Homo sapiens)
# Sequence (P48736 whole entry, canonical isoform): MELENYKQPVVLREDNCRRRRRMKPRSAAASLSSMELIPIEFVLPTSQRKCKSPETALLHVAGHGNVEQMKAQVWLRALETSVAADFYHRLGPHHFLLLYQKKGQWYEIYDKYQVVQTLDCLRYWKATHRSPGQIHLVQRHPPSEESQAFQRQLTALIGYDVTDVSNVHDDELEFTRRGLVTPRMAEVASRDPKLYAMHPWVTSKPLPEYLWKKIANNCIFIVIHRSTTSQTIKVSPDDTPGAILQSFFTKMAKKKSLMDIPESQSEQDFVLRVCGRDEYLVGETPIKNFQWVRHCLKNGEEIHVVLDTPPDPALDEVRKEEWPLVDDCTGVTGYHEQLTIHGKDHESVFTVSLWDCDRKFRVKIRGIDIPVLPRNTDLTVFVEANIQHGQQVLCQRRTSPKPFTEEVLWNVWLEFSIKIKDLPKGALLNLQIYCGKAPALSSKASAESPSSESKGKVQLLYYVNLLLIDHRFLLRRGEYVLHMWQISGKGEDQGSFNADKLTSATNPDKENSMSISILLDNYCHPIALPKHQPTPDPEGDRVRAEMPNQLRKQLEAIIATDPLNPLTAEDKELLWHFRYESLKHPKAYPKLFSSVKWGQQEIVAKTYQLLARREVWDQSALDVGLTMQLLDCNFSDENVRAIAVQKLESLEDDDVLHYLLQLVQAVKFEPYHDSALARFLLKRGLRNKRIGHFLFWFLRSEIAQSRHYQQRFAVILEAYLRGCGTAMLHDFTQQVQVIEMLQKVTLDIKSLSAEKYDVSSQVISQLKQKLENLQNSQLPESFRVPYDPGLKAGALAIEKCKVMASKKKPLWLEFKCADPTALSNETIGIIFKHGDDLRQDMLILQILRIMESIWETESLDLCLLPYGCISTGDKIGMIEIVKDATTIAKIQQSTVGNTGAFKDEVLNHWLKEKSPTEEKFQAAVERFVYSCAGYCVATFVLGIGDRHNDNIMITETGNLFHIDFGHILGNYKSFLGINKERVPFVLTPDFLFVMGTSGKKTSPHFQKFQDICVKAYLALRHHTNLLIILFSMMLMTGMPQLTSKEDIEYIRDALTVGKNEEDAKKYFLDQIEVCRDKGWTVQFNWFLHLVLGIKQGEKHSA
# TEST PROTOCOL: Inhibition of PI3Kgamma (unknown origin) using Biotin-S11S12 as substrate after 60 mins in presence of ATP by ADPGlo luminescence assay
MEASURED METRIC: pIC50
Recall that pIC50 is obtained by taking minus log10 of the concentration measured in molar.

In [3]: df
Out[3]:
                                smiles_data  measured_metric  observed
0  COc1ccc(-c2nn(Cc3nc4cccc(F)c4c(=O)n3-c3c(C)cccc3C)c3ncnc(N)c23)cc1OC            pIC50      7.21

In the following, a different molecule is considered.
Lab note: measured pIC50 of `Cc1cccc(C)c1-n1c(Cn2nc(-c3ccc4[nH]ccc4c3)c3c(N)ncnc32)nc2cccc(F)c2c1=O` was 6.44

###

# TEST PROTOCOL: Plasma concentration in Sprague-Dawley rat at 1 mg/kg, iv after 0.25 hrs
# Format: ADME, organism-based
Let's look at some molecules and their measured concentration at 0.25 h.
Your answer should be a plain number; it is taken to be in ng/mL.

                                smiles_data          measured_metric  observed
0  COc1ccc(-c2nn(Cc3nc4cccc(F)c4c(=O)n3-c3c(C)cccc3C)c3ncnc(N)c23)cc1OC  concentration at 0.25 h       541

concentration at 0.25 h reported for this molecule `Cc1cccc(C)c1-n1c(Cn2nc(-c3ccc4[nH]ccc4c3)c3c(N)ncnc32)nc2cccc(F)c2c1=O` : 541

###

In this section we review reported pIC50 values for a set of molecules.
# TGT: Phosphatidylinositol 4,5-bisphosphate 3-kinase catalytic subunit alpha isoform (Homo sapiens, UniProt P42336)
# Sequence (P42336 whole entry, canonical isoform): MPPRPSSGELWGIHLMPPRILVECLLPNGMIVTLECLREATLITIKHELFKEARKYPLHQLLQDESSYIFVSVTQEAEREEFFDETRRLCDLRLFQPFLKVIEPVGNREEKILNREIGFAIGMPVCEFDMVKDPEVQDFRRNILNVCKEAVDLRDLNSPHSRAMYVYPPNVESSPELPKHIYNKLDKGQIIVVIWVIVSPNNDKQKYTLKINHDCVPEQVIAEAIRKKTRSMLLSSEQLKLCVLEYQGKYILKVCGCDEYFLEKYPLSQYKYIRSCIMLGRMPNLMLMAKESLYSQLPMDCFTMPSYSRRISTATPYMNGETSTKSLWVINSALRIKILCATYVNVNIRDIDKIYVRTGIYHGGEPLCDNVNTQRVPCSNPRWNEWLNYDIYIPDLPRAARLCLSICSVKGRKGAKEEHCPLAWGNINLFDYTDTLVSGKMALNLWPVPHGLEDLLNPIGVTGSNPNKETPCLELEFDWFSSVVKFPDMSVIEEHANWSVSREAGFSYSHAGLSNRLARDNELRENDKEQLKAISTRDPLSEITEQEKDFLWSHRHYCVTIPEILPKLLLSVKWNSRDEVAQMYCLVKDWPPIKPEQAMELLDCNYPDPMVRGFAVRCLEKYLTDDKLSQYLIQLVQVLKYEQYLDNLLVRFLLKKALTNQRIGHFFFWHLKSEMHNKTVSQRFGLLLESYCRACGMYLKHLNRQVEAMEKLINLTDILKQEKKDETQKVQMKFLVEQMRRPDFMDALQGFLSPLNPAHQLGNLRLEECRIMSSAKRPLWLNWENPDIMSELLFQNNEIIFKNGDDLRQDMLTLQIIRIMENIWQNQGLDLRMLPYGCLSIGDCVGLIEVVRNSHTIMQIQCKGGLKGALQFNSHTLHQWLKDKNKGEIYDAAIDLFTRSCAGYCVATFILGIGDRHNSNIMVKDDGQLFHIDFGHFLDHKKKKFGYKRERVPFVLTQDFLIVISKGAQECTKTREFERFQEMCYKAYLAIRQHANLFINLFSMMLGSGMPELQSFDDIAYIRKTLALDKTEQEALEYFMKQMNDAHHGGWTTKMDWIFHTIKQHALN
# TEST PROTOCOL: Inhibition of PI3Kalpha (unknown origin) using Biotin-S11S12 as substrate after 60 mins in presence of ATP by Kinase Glo luminescence assay
Keep in mind that pIC50 stands for -log10 of concentration in molar terms.

>>> print(df.to_string())
                                smiles_data  observed
0  COc1ccc(-c2nn(Cc3nc4cccc(F)c4c(=O)n3-c3c(C)cccc3C)c3ncnc(N)c23)cc1OC      4.93

# context switch: different molecule, same pIC50
Input `Cc1cccc(C)c1-n1c(Cn2nc(-c3ccc4[nH]ccc4c3)c3c(N)ncnc32)nc2cccc(F)c2c1=O` . Output pIC50: 4.50

###

# TEST PROTOCOL: Cmax in Sprague-Dawley rat at 10 mg/kg, po
# Assay type: ADME, organism-based
# Parameters: dose 10 mg/kg, route oral
# CONDITION NOTES: in vivo
Measured Cmax of individual entries
Respond with the bare value in ng/mL.

>>> print(df.to_string())
                                smiles_data  observed
0  Cc1cccc(C)c1-n1c(Cn2nc(-c3ccc4[nH]ccc4c3)c3c(N)ncnc32)nc2cccc(F)c2c1=O       387

// next item, Cmax requested
Recorded result, `COc1ccc(-c2nn(Cc3nc4cccc(F)c4c(=O)n3-c3c(C)cccc3C)c3ncnc(N)c23)cc1OC` , Cmax: 387

###

Let's look at some molecules and their measured inhibition.
# TGT: Phosphatidylinositol 4,5-bisphosphate 3-kinase catalytic subunit delta isoform (Homo sapiens) (UniProt O00329)
# TEST PROTOCOL: Inhibition of PI3Kdelta (unknown origin) at 1 uM using Biotin-S11S12 as substrate after 120 mins in presence of ATP by ADPGlo luminescence assay
Express your answer in %, writing the number without its unit.

Known results for molecules:
                                   molecule  measured_metric  observed
0  Cc1ccccc1-n1c(Cn2nc(-c3ccc4cc(O)ccc4c3)c3c(N)ncnc32)nc2cccc(F)c2c1=O       inhibition        73
1  Cc1cccc(C)c1-n1c(Cn2nc(-c3ccc4c(c3)OCO4)c3c(N)ncnc32)nc2cccc(F)c2c1=O       inhibition      89.1
2  Cc1cccc(C)c1-n1c(Cn2nc(-c3cccc(OC(F)(F)F)c3)c3c(N)ncnc32)nc2cccc(F)c2c1=O       inhibition      29.6
3  Cc1ccccc1-n1c(Cn2nc(-c3cnc4ccccc4c3)c3c(N)ncnc32)nc2cccc(F)c2c1=O       inhibition        90
4  COc1ccc(-c2nn(Cc3nc4cccc(F)c4c(=O)n3-c3c(C)cccc3C)c3ncnc(N)c23)cc1OC       inhibition      96.8
5  COc1ccc(-c2nn(Cc3nc4cccc(F)c4c(=O)n3-c3c(C)cccc3C)c3ncnc(N)c23)cn1       inhibition      94.7
6  Cc1cccc(C)c1-n1c(Cn2nc(-c3ccc4cc(O)ccc4c3)c3c(N)ncnc32)nc2cccc(F)c2c1=O       inhibition      77.3
7  Cc1ccccc1-n1c(Cn2nc(-c3cccc(OC(F)(F)F)c3)c3c(N)ncnc32)nc2cccc(F)c2c1=O       inhibition      70.8
8  COc1ccc(-c2nn(Cc3nc4cccc(F)c4c(=O)n3-c3ccccc3C)c3ncnc(N)c23)cn1       inhibition      92.7
9  Cc1ccccc1-n1c(Cn2nc(-c3ccc4c(c3)OCO4)c3c(N)ncnc32)nc2cccc(F)c2c1=O       inhibition      89.6

# next molecule below
Lab note: measured inhibition of CC[C@H](Nc1ncnc2[nH]cnc12)c1nc2cccc(F)c2c(=O)n1-c1ccccc1 [IDELALISIB] was 91.9
